B1: SNX3 (parent)
chain: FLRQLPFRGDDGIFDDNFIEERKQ

- Variants of: B1
- ASSAY_NOTES: protein stability index of a GFP-peptide fusion (GPS, HEK-293T) (PSI 1-6); higher = more stable;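 also: lentivirally expressed fusions sorted by FACS into six bins by GFP to DsRed ratio, PSI derived from sequencing read proportions per bin multiplied by bin number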
- ASSAY_SETUP: c terminus: a fixed tail appended
Some variants, each annotated with its measured protein stability index.

{"columns": ["MUTATION_DESCRIPTOR", "protein stability index"],
 "data": [
  ["D16T", 3.06],
  ["Q4V", 3.07],
  ["F14C", 3.06]
]}
